Hey, just so you know, these numbers are from patent US5441983A.

As shown below, each of these compounds has a reported EC100 value.
Test system: HIV-HXB
assay_method_text: Inhibition of syncytia formation, HIV-HXB (HTLV-IIIB)
condition_parameters: Human immunodeficiency virus 1, 18 h, read-out: HIV-HXB ED100, complete inhibition of syncytia formation
Number in µg/mL, nothing else.

Example compounds with recorded EC100:
{"compound": "CCCCC(=O)Oc1c2c(S(=O)(=O)O)cc3cc(S(=O)(=O)O)c(c(OC(=O)CCCC)c13)Cc1c(S(=O)(=O)O)cc3cc(S(=O)(=O)O)c(c(OC(=O)CCCC)c3c1OC(=O)CCCC)Cc1c(S(=O)(=O)O)cc3cc(S(=O)(=O)O)c(c(OC(=O)CCCC)c3c1OC(=O)CCCC)Cc1c(S(=O)(=O)O)cc3cc(S(=O)(=O)O)c(c(OC(=O)CCCC)c3c1OC(=O)CCCC)C2 [KY-289]", "EC100 [µg/mL]": 16}
{"compound": "O=S(O)c1cc2cc(S(=O)O)c3c(O)c2c(O)c1Cc1c(S(=O)O)cc2cc(S(=O)O)c(c(O)c2c1O)Cc1c(S(=O)O)cc2cc(S(=O)O)c(c(O)c2c1O)Cc1c(S(=O)O)cc2cc(S(=O)O)c(c(O)c2c1O)C3 [KY-123]", "EC100 [µg/mL]": 16}

Now consider a different compound.
Requested read-out EC100, target or system HIV-HXB, entry O=S(=O)(O)c1cc2cc(S(=O)(=O)O)c3c(O)c2c(O)c1C(C(O)CO)c1c(S(=O)(=O)O)cc2cc(S(=O)(=O)O)c(c(O)c2c1O)C(C(O)CO)c1c(S(=O)(=O)O)cc2cc(S(=O)(=O)O)c(c(O)c2c1O)C(C(O)CO)c1c(S(=O)(=O)O)cc2cc(S(=O)(=O)O)c(c(O)c2c1O)C3C(O)CO (stereo not drawn) [KY-48]
250

###

Tested on: HSV-1 KOS (PFA)'
assay_method_text: Inhibition of viral yield, drug-resistant HSV-1 KOS(PFA)'
condition_parameters: Human alphaherpesvirus 1, HeLa, read-out: ID90
measured_parameter: IC90 (µM)
Give the value, in units of µM, as a plain number.

{"molecule": "Nc1nc2c(ncn2COCCO)c(=O)[nH]1 [ACV, acyclovir, reference compound]", "target_of_assay": "HSV-1 KOS (PFA)'", "measured_parameter": "IC90", "measure_unit": "µM", "observed_result": 100}

IC90 for Nc1nc(O)c2ncn(COC(CO)CO)c2n1 ?
1

###

Tested on: HIV-RF-II
assay_method_text: Inhibition of syncytia formation, HIV-RF-II
condition_parameters: Human immunodeficiency virus 1, 18 h, read-out: HIV-RF-II ED100, complete inhibition of syncytia formation
measured_parameter: EC100 (µg/mL)
Give the value in µg/mL but do not write µg/mL after it.

Some solved entries appear below for comparison.
{"structure": "CNS(=O)(=O)c1cc2cc(S(=O)(=O)NC)c3c(O)c2c(O)c1Cc1c(S(=O)(=O)NC)cc2cc(S(=O)(=O)NC)c(c(O)c2c1O)Cc1c(S(=O)(=O)NC)cc2cc(S(=O)(=O)NC)c(c(O)c2c1O)Cc1c(S(=O)(=O)NC)cc2cc(S(=O)(=O)NC)c(c(O)c2c1O)C3", "observed_result": 250}
{"structure": "O=S(=O)(NO)c1cc2cc(S(=O)(=O)NO)c3c(O)c2c(O)c1Cc1c(S(=O)(=O)NO)cc2cc(S(=O)(=O)NO)c(c(O)c2c1O)Cc1c(S(=O)(=O)NO)cc2cc(S(=O)(=O)NO)c(c(O)c2c1O)Cc1c(S(=O)(=O)NO)cc2cc(S(=O)(=O)NO)c(c(O)c2c1O)C3", "observed_result": 63}

// below: EC100 requested for another molecule
Can you share its EC100? I mean this molecule: O=S(=O)(Nc1ccccc1)c1cc2cc(S(=O)(=O)Nc3ccccc3)c3c(O)c2c(O)c1Cc1c(S(=O)(=O)Nc2ccccc2)cc2cc(S(=O)(=O)Nc4ccccc4)c(c(O)c2c1O)Cc1c(S(=O)(=O)Nc2ccccc2)cc2cc(S(=O)(=O)Nc4ccccc4)c(c(O)c2c1O)Cc1c(S(=O)(=O)Nc2ccccc2)cc2cc(S(=O)(=O)Nc4ccccc4)c(c(O)c2c1O)C3
250

###

IC50 values for the compounds below.
Tested on: HSV-1
assay_method_text: Plaque reduction assay, HSV-1, Vero cells
Assay type: cell-based, HSV-1 (Kos-1)
condition_parameters: Human alphaherpesvirus 1, Vero, plaque reduction, Vero cells

Reference set (2 entries):
{"compound": "CS(=O)(=O)c1cc2cc(S(C)(=O)=O)c3c(O)c2c(O)c1Cc1c(S(C)(=O)=O)cc2cc(S(C)(=O)=O)c(c(O)c2c1O)Cc1c(S(C)(=O)=O)cc2cc(S(C)(=O)=O)c(c(O)c2c1O)Cc1c(S(C)(=O)=O)cc2cc(S(C)(=O)=O)c(c(O)c2c1O)C3 [KY-158]", "observed_result": "> 10 µg/mL"}
{"compound": "O=C(O)C1c2c(S(=O)(=O)O)cc3cc(S(=O)(=O)O)c(c(O)c3c2O)C(C(=O)O)c2c(S(=O)(=O)O)cc3cc(S(=O)(=O)O)c(c(O)c3c2O)C(C(=O)O)c2c(S(=O)(=O)O)cc3cc(S(=O)(=O)O)c(c(O)c3c2O)C(C(=O)O)c2c(S(=O)(=O)O)cc3cc(S(=O)(=O)O)c1c(O)c3c2O (stereo not drawn) [Y-66]", "observed_result": "> 10 µg/mL"}

Lab note: next compound to report on.
Quick check: IC50 of COS(=O)(=O)c1cc2cc(S(=O)(=O)OC)c3c(O)c2c(O)c1Cc1c(S(=O)(=O)OC)cc2cc(S(=O)(=O)OC)c(c(O)c2c1O)Cc1c(S(=O)(=O)OC)cc2cc(S(=O)(=O)OC)c(c(O)c2c1O)Cc1c(S(=O)(=O)OC)cc2cc(S(=O)(=O)OC)c(c(O)c2c1O)C3 [KY-175] ?
> 10 µg/mL

###

System: HSV-1 KOS (PFA)'
assay_method_text: Inhibition of viral yield, drug-resistant HSV-1 KOS(PFA)'
condition_parameters: Human alphaherpesvirus 1, HeLa, read-out: ID90
// reported IC90 per item

{"compound": "O=C(O)P(=O)(O)O [PFA, phosphonoformate]", "target_of_assay": "HSV-1 KOS (PFA)'", "observed_result": "> 1000 µM"}
{"compound": "O=S(=O)(O)c1cc2cc(S(=O)(=O)O)c3c(O)c2c(O)c1Cc1c(S(=O)(=O)O)cc2cc(S(=O)(=O)O)c(c(O)c2c1O)Cc1c(S(=O)(=O)O)cc2cc(S(=O)(=O)O)c(c(O)c2c1O)Cc1c(S(=O)(=O)O)cc2cc(S(=O)(=O)O)c(c(O)c2c1O)C3", "target_of_assay": "HSV-1 KOS (PFA)'", "observed_result": "4.3 µg/mL"}

Okay, now this compound:
Which IC90 value is on record for Nc1ncnc2c1ncn2CCOCP(=O)(O)O ?
> 1000 µM
